Attribute: pIC50
# Tested on: AN3CA
# ASSAY DETAILS: CellTiter-Blue cell viability assay, AN3CA cell line
# Type: cell-based
# RECORDED CONDITIONS: Homo sapiens, AN3-CA, 72 hour treatment, concentration that inhibits cell growth by 50 percent of control
pIC50: −log10 of the molar value.
ATTRIBUTE MEASURED: pIC50

STRUCTURE NOTATION: Cc1ccc(Br)c(-c2cc(C(F)(F)F)nn2-c2ccc(S(N)(=O)=O)cc2)c1
ATTRIBUTE MEASURED: pIC50
NUMERIC READOUT: 5.82

STRUCTURE NOTATION: NS(=O)(=O)c1ccc(-n2nc(C(F)(F)F)cc2-c2cc(-c3ccncc3)ccc2F)cc1
ATTRIBUTE MEASURED: pIC50
NUMERIC READOUT: 5.52

STRUCTURE NOTATION: CN(C)c1ccc(Br)cc1-c1cc(C(F)(F)F)nn1-c1ccc(S(N)(=O)=O)cc1
ATTRIBUTE MEASURED: pIC50
NUMERIC READOUT: 6.22

STRUCTURE NOTATION: NS(=O)(=O)c1ccc(-n2nc(C(F)(F)F)cc2-c2cccc(-c3ccn[nH]3)c2)cc1
ATTRIBUTE MEASURED: pIC50
NUMERIC READOUT: 5.68

STRUCTURE NOTATION: Cc1cc(-c2ccncc2)cc(-c2cc(C(F)(F)F)nn2-c2ccc(S(N)(=O)=O)cc2)c1
ATTRIBUTE MEASURED: pIC50
NUMERIC READOUT: 5.92

STRUCTURE NOTATION: Cc1ccc(Br)cc1-c1cc(C(F)(F)F)nn1-c1ccc(S(N)(=O)=O)cc1
ATTRIBUTE MEASURED: pIC50
NUMERIC READOUT: 5.12

STRUCTURE NOTATION: Cc1cc(-c2cc(C3CC3)nn2-c2ccc(C(=O)NO)cc2)ccc1Cl
ATTRIBUTE MEASURED: pIC50
NUMERIC READOUT: 5.05

STRUCTURE NOTATION: CN(C)c1ccc(-c2ccn[nH]2)cc1-c1cc(C(F)(F)F)nn1-c1ccc(S(N)(=O)=O)cc1
ATTRIBUTE MEASURED: pIC50
NUMERIC READOUT: 5.04

STRUCTURE NOTATION: Cc1ccc(C(C)C)cc1-c1cc(C(F)(F)F)nn1-c1ccc(S(N)(=O)=O)cc1
ATTRIBUTE MEASURED: pIC50
NUMERIC READOUT: 6.08

STRUCTURE NOTATION: Cc1ccc(-c2ccncc2)cc1-c1cc(C(F)(F)F)nn1-c1ccc(S(N)(=O)=O)cc1
ATTRIBUTE MEASURED: pIC50
NUMERIC READOUT: 8.00
